Sourced from PubChem BioAssay (NCI)

# System: HCC-2998 colon
# Protocol summary: NCI-60 one-dose screen, 48 h (100 = growth as untreated, 0 = no growth, -100 = all killed)
# Experimental conditions: 10 µM unless noted
Compounds without any hit were thinned out: in the full panel of roughly 83,000, 20% have a hit.
Binary call on growth with cut-off 70%: strictly below means rule met, and equality or higher means rule not met.

q: Could you please tell me whether growth recorded for `C=CC[C@]1(O)CC[C@H]2[C@@H]3CCc4cc(O)ccc4[C@H]3CC[C@@]21C` is less than 70%?
a: rule not met

q: Could you please tell me whether growth recorded for COc1ccc(C2=CC(c3ccc(OC)cc3Br)N3C=CSC3=N2)cc1 (stereo not drawn) is less than 70%?
a: rule met

q: Could you please tell me whether growth recorded for `O=[N+]([O-])c1cccc([I+]c2ccccc2)c1` is less than 70%?
a: rule met

q: Could you please tell me whether growth recorded for `C/C(CC(=O)NNc1ccc([N+](=O)[O-])cc1)=N\Nc1ccc([N+](=O)[O-])cc1` is less than 70%?
a: rule not met

q: Could you please tell me whether growth recorded for Cc1ccccc1N1C(c2ccccc2)=NNC12C=CC(=O)c1c(O)cccc12 (stereo not drawn) is less than 70%?
a: rule not met

q: Could you please tell me whether growth recorded for `CCCCCCCCCCCCCCCc1cc(O)ccc1[N+](=O)[O-]` is less than 70%?
a: rule not met

q: Could you please tell me whether growth recorded for `CC(C)NCCCCCNc1cc(O)cc2cccnc12` is less than 70%?
a: rule met

q: Could you please tell me whether growth recorded for `CC(=O)[C@@]1(O)[C@H](C)C[C@H]2[C@@H]3C=C(C)C4=Cc5c(cnn5-c5ccccc5)C[C@]4(C)[C@H]3[C@@H](O)C[C@@]21C` is less than 70%?
a: rule met

q: Could you please tell me whether growth recorded for `Fc1ccc(-c2nnc(N3CCOCC3)c3ccccc23)cc1` is less than 70%?
a: rule not met

q: Could you please tell me whether growth recorded for `Cc1ccc(CSCc2ccc(C(=O)NC3CC3)o2)cc1` is less than 70%?
a: rule met

q: Could you please tell me whether growth recorded for `COCCOCCOCc1n(Cc2ccc3ccccc3n2)c2ccccc2[n+]1Cc1ccc2ccccc2c1` is less than 70%?
a: rule met

q: Could you please tell me whether growth recorded for `FC1(F)CCN(Cc2c[nH]c3cc(Cl)ccc23)C[C@H]1CCc1ccccc1` is less than 70%?
a: rule not met

q: Could you please tell me whether growth recorded for `Clc1ccc2c(c1)-c1ccccc1C1=NCCN12` is less than 70%?
a: rule met

q: Could you please tell me whether growth recorded for `COc1cc2cc(C(=O)Nc3ccccc3)c(N)nc2cc1OC` is less than 70%?
a: rule met

q: Could you please tell me whether growth recorded for `CNCCCNc1ccnc2cc(Cl)ccc12` is less than 70%?
a: rule met

q: Could you please tell me whether growth recorded for `O=C(Nc1ccc(Cl)c(C(F)(F)F)c1)c1ccc(Nc2ccc(Cl)nn2)cc1` is less than 70%?
a: rule met

q: Could you please tell me whether growth recorded for CNCc1cccc2c1OCCOCCOCCC(C)S(=O)(=O)c1ccc(cc1)-c1cnc(N)c(n1)C(=O)N2 (stereo not drawn) is less than 70%?
a: rule not met

q: Could you please tell me whether growth recorded for COc1cc(C2CC(c3ccc(Cl)cc3)=NN2C=O)ccc1OS(=O)(=O)c1ccc(C)cc1 (stereo not drawn) is less than 70%?
a: rule not met

q: Could you please tell me whether growth recorded for `Clc1ccc(Nc2ncnc3c2sc2ncccc23)cc1` is less than 70%?
a: rule met

q: Could you please tell me whether growth recorded for `C#CC[C@@H]1C[C@]2(C)[C@H]3CC=C4[C@H]5CC(C)(C)CC[C@]5(C(=O)NCCCCN)CC[C@@]4(C)[C@]3(C)CC[C@H]2C(C)(C)[C@H]1OC(C)=O` is less than 70%?
a: rule met

q: Could you please tell me whether growth recorded for O=C(C(Br)C(Br)c1ccccc1)C(Br)C(Br)c1ccccc1 (stereo not drawn) is less than 70%?
a: rule met

q: Could you please tell me whether growth recorded for `CC(C)COC(=O)NC(C)(C)C` is less than 70%?
a: rule not met

q: Could you please tell me whether growth recorded for `Cn1nc(C(F)(F)F)cc1-c1c[nH]c(OCc2ccc(Cl)cc2)c(-c2ccc(Cl)c(C(F)(F)F)c2)c1=O` is less than 70%?
a: rule met

q: Could you please tell me whether growth recorded for `CC1=NOCC(=O)N1` is less than 70%?
a: rule not met

q: Could you please tell me whether growth recorded for `COc1ccc(CCN2COc3c([C@@H](C)CCC=C(C)C)ccc(C)c3C2)cc1OC` is less than 70%?
a: rule met

q: Could you please tell me whether growth recorded for `Clc1cn2cc(-c3ccc(Cl)c(Cl)c3Cl)nc2s1` is less than 70%?
a: rule not met

q: Could you please tell me whether growth recorded for `Cc1n(Cc2ccc3ccccc3n2)cc[n+]1Cc1ccc2ccccc2c1` is less than 70%?
a: rule met

q: Could you please tell me whether growth recorded for C#CC[C@@H]1C[C@]2(C)[C@H]3CC[C@@H]4[C@H]5C(C(=C)C)CC[C@]5(C(=O)NCCCCCCCCN)CC[C@@]4(C)[C@]3(C)CC[C@H]2C(C)(C)[C@H]1OC(C)=O (stereo partly drawn) is less than 70%?
a: rule not met

q: Could you please tell me whether growth recorded for `N#Cc1nc(-c2cccc(Br)c2)cc(-c2ccc(Nc3nc(N4CCCCC4)nc(N4CCCCC4)n3)cc2)c1N` is less than 70%?
a: rule met

q: Could you please tell me whether growth recorded for `Clc1ccccc1Nc1nnc(-c2ccncc2)s1` is less than 70%?
a: rule not met

q: Could you please tell me whether growth recorded for `CC(C)N1CCN(c2ccncc2S(=O)(=O)N2CCN(C)CC2)CC1` is less than 70%?
a: rule not met

q: Could you please tell me whether growth recorded for `CCOC(=O)c1sc2nc(-c3cc4ccccc4o3)cc(-c3ccc(Cl)cc3)c2c1N` is less than 70%?
a: rule not met
